Just for reference, paper PMC11995724 is where these values come from.

# MEASUREMENT_NOTES: in vitro
# CONDITION_INFO: human, hek293t cells
Label key: satisfied means viability at 48 h, 25 µM under 90%; not satisfied means viability at 48 h, 25 µM of 90% or more.

Please review the entries below; each comes with its answer.
O=C(CCl)NCCc1ncc(F)cn1 | not satisfied
CC(Cl)C(=O)N1CCN(c2nc3ccccc3o2)C(C)C1 (stereo not drawn) | satisfied
Cc1ccc(NC(=O)C(C#N)=Cc2ccc(C(C)(C)C)cc2)cc1C | not satisfied

Then this compound:
Query: Is it true that viability at 48 h, 25 µM reported for "N#CC(=Cc1ccc(Oc2cnccn2)cc1)C(=O)NC1CCCC1" is less than 90%?
Reply: not satisfied

---

# MEASUREMENT_NOTES: in vitro
# CONDITION_INFO: human, hek293t cells
MEASURED_PARAMETER: viability at 48 h, 25 µM (%)
Write the value in % as a bare number.

For orientation, consider the following solved cases.
C=CC(=O)N1CCN(C(=O)c2ccco2)CC1 [1-P11] | 88.3
O=C(O)c1coc(C(=O)CCl)c1 [10-B07] | 107
CC(Cl)C(=O)N1CCn2cccc2C1c1ccccc1 (stereo not drawn) [7-E11] | 97.1
C=CC(=O)N[C@H](C)c1cnnn1C [3-B11] | 73.8
CC(NC(=O)CCl)C(c1ccccc1Cl)n1cccn1 (stereo not drawn) [7-D20] | 1.01

Could you now look at the following compound, please?
Query: Consider the compound C=CC(=O)N(Cc1c(C)cc(Cl)cc1C)CC1COCCO1 (stereo not drawn) [1-J09] . State its measured viability at 48 h, 25 µM.
Reply: 81.4

---

# viability at 48 h, 25 µM per entry
# MEASUREMENT_NOTES: in vitro
# CONDITION_INFO: human, hek293t cells
Write the value in % as a bare number.

For orientation, consider the following solved cases.
O=C(CCl)NC1Cc2ccccc2N(C(=O)C(F)(F)F)C1 (centres unmarked) [7-L16] | 0.649
C=CC(=O)N1CCC(C(=O)NC(C)(C)c2ccc(F)c(F)c2)CC1 [1-L04] | 91.1
CN(C1CCCCC1)S(=O)(=O)c1ccc(NC(=O)CCl)cc1 [5-E03] | -0.149
Cc1ccc(N2CCCC2CNC(=O)CCl)cc1 (centres unmarked) [7-H14] | 4.76
C=CC(=O)Nc1ccc(N2CCN(CC)CC2)cc1 [1-D12] | 77.2

Query: Consider the compound Cc1cc(C2CCCN2C(=O)C(C)Cl)no1 (centres unmarked) [7-D19] . State its measured viability at 48 h, 25 µM.
Reply: 88.5

Query: Consider the compound N#CC(=Cc1cccnc1)C(=O)NCc1ccccc1 [9-I14] . State its measured viability at 48 h, 25 µM.
Reply: 113

Query: Consider the compound C=CC(=O)Nc1ccccc1CCSC [1-A19] . State its measured viability at 48 h, 25 µM.
Reply: 93.5

Query: Consider the compound N#CC(=Cc1ccsc1)C(=O)Nc1ccc(Cl)cc1 [9-I06] . State its measured viability at 48 h, 25 µM.
Reply: 112

Query: Consider the compound C=CC(=O)N1CC(C)OC2(CCOCC2)C1 (centres unmarked) [3-I12] . State its measured viability at 48 h, 25 µM.
Reply: 91.6

Query: Consider the compound CC(NC(=O)CCl)c1cn(-c2ccccc2)nn1 (centres unmarked) [5-O06] . State its measured viability at 48 h, 25 µM.
Reply: 4.63
